# TEST PROTOCOL: Solubility
# Type: physicochemical
# TEST PARAMETERS: phosphate buffer, pH 7.5, aqueous buffer
MEASURED ENDPOINT: solubility (µg/mL)
Could you give me the number in µg/mL? Just the number is fine.

**Query** Look up solubility of CC(=O)Nc1nc(F)c(CN2CC[C@H](OCc3noc(C)n3)C[C@@H]2C)s1 and report it.
**Result** 1360
